Experiment: NCI Yeast Anticancer Drug Screen. Data for the cln2 rad14 strain (AID 165)
Details: S. cerevisiae cln2 rad14 strain, at 50.0 µM, stronger effect = higher value
This is part of a sample that, as a whole, favours compounds with a hit. Of some 79,000 tested, about 15% had one in any assay.
Each entry gets not met if its growth inhibition stays under -20%, and met if its growth inhibition is -20% or above.

Before answering, review these 3 worked examples.
Asked: Decide: growth inhibition of "CCCCCc1cc(O)cc2c1Oc1cc(O)cc(C(=O)CCCC)c1C(=O)O2" >= -20%?
Given back: met

Asked: Decide: growth inhibition of "CNc1ccc(C(=O)O)cc1C" >= -20%?
Given back: met

Asked: Decide: growth inhibition of C=CCOc1cc2c(cc1C(C)c1ccc(OCC)cc1)OCO2 (stereo unspecified) >= -20%?
Given back: met

Continuing:
Asked: Decide: growth inhibition of "CSc1ccccc1C(C)(C)O" >= -20%?
Given back: not met

Asked: Decide: growth inhibition of "COc1cc(/C=C(\C#N)C(N)=O)cc(Br)c1O" >= -20%?
Given back: met

Asked: Decide: growth inhibition of CC(=O)c1ccccc1NC(=O)C(=O)C(C(=O)c1ccccc1-c1ccccc1)C1OC(=O)c2ccccc21 (stereo unspecified) >= -20%?
Given back: not met
